Molecular target: sigma site
Experiment: Sigma site binding: inhibition of R(+)-[3H]3-PPP binding
Parameters: species or system rat
Conditions: one site fit; pooled data, n = 2 independent experiments; read-out: KG = Dissociation constant for one site fit
Threshold check on Kd: strictly below 300 nM is Satisfied; on or above 300 nM is Not satisfied.

Please review the following examples before continuing.
1. CC(NCCCCc1ccccc1)C(O)c1ccc2c(c1)CCS2 (single isomer, unassigned) [Compound 185] | Satisfied
2. CC(NCCCc1ccccc1)C(O)c1ccc2c(c1)CCCS2 (stereo not drawn) | Not satisfied
3. C=CCN1CCC2(C)c3cc(O)ccc3CC1C2C (single isomer, unassigned; (+)) [(+)SKF10.047, N-allylnormetazocine, reference compound] | Not satisfied
4. CC(NCCCCc1ccccc1)C(O)c1ccc2c(c1)CCS2 (single isomer, unassigned) [Compound 184] | Satisfied
5. CC(C(O)c1ccc(O)cc1)N1CCC(Cc2ccccc2)CC1 (stereo not drawn) [Ifenprodil, reference compound] | Satisfied

hey, is Kd for C[C@H](NCCCCc1ccccc1)[C@@H](O)c1ccc2c(c1)CCS2 (relative stereo) lower than 300 nM or not?
Not satisfied

Try this molecule too: CC(C(O)c1ccc2c(c1)CCS2)N1CCC(Cc2ccccc2)CC1 (stereo not drawn)
Satisfied

Another molecule to look at: CC(CCc1ccccc1)NC(C)C(O)c1ccc(O)cc1 (stereo not drawn) [Nylidrin, reference compound]
Satisfied

And what about the molecule C[C@H](NCCCCc1ccccc1)[C@H](O)c1ccc2c(c1)CCS2 (relative stereo) ?
Satisfied
